assay_method_text: Protective activity against Daboia russellii venom-induced defibrinogenation in iv dosed Swiss albino mouse assessed as venom level causing blood coagulation at 100 mmol preincubated with venom for 1 hr followed by administration to mouse (reference value: 2.5 ug)
Format: functional, Daboia russelii
// values below are reported Activity
Write it as a number; the unit µg goes unstated.

molecule: COc1ccc(CO)c(O)c1
experimental_readout: Activity
result_value: 25
//
molecule: C=CCOc1ccc(C=O)c(O)c1
experimental_readout: Activity
result_value: 5
//
molecule: CCCCOc1ccc(C=O)c(O)c1
experimental_readout: Activity
result_value: 6
//
molecule: O=Cc1ccc(O)cc1O
experimental_readout: Activity
result_value: 2.5
//
molecule: OCc1cccc(O)c1O
experimental_readout: Activity
result_value: 2.5

Query: Consider the compound COc1ccc(C=O)c(O)c1 and give its measured Activity.
Response: 22

Query: Give its Activity value. Item: COc1cccc(CO)c1O
Response: 25

Query: Need Activity, item COc1cccc(C=O)c1O
Response: 25

----------
assay_method_text: Protective activity against Naja kaouthia venom-induced mortality in Swiss albino mouse at 100 mmol, iv by measuring venom LD50 administered immediately after venom injection measured after 24 hrs (reference value: 2.82 ug)
Type: functional
Parameter: LD50. Scope: all listed entries.
# number only, unit µg dropped from output

Examples with answers:
molecule: COc1ccc(CO)c(O)c1
u: µg
result_value: 10

molecule: OCc1cccc(O)c1O
u: µg
result_value: 10

molecule: COc1ccc(C=O)c(OC)c1
u: µg
result_value: 8

molecule: COc1ccc(C=O)c(O)c1
u: µg
result_value: 10

molecule: CCCCOc1ccc(C=O)c(O)c1
u: µg
result_value: 10

molecule: COc1cc(C=O)ccc1O
u: µg
result_value: 10

molecule: C=CCOc1ccc(C=O)c(O)c1
u: µg
result_value: 10

molecule: O=Cc1ccc(O)cc1O
u: µg
result_value: 8

molecule: COc1ccc(O)c(C=O)c1
u: µg
result_value: 8

molecule: CCOc1cc(C=O)ccc1O
u: µg
result_value: 10

Query: Quick check: LD50 of COc1cccc(CO)c1O ?
Response: 10

Query: Any idea what LD50 was measured for COc1cccc(C=O)c1O ?
Response: 10

----------
The molecules listed here are annotated with their fold change (FC).
assay_method_text: Protective activity against Daboia russellii venom-induced mortality in Swiss albino mouse at 100 mmol, iv administered immediately after venom injection measured after 24 hrs relative to untreated control
Assay type: functional, Daboia russelii
Note: the reply should be a number with no unit written.

Query: Please report the recorded fold change (FC) for COc1cccc(C=O)c1O .
Response: 3.75

Query: Suppose we examine the molecule O=Cc1ccc(O)cc1O ; what fold change (FC) value has been reported?
Response: 2.5

Query: Need fold change (FC) of O=Cc1cc(O)ccc1O , thanks.
Response: 1.25

Query: Please report the recorded fold change (FC) for OCc1cccc(O)c1O .
Response: 2.5

Query: Fill in the blank: the reported fold change (FC) of COc1ccc(/C=N/O)c(OC)c1 is ____.
Response: 1.25

Query: Consider the molecule shown here: COc1cccc(CO)c1O What is its recorded fold change (FC)?
Response: 3.75

Query: Give the measured fold change (FC) of O=Cc1cccc(O)c1 [3-HYDROXYBENZALDEHYDE] .
Response: 1.25

Query: Bench note: what fold change (FC) did COc1ccc(C=O)c(O)c1 show?
Response: 3.75

----------
assay_method_text: Protective activity against Daboia russellii venom-induced mortality in Swiss albino mouse at 100 mmol, iv administered immediately after venom injection measured after 24 hrs relative to untreated control
Type: functional, Daboia russelii
// reported fold change (FC) per item
Reply: number alone, nothing else.

compound: O=Cc1ccc(O)c(O)c1 [PROTOCATECHUALDEHYDE]
result_value: 1.25

Query: Entry under review: CCOc1cc(C=O)ccc1O [ETHYL VANILLIN] . Reported fold change (FC)?
Response: 2.5

Query: For COc1ccc(C=O)c(OC)c1 , what is its reported fold change (FC)?
Response: 2.5

Query: State the recorded fold change (FC) for this entry: COc1ccccc1C=O [2-METHOXYBENZALDEHYDE]
Response: 2.5

Query: Which value of fold change (FC) has been reported for COc1cccc(C=O)c1 in the records?
Response: 2.5

Query: What does the data say about its fold change (FC)? Entry: COc1ccc(O)c(C=O)c1
Response: 2.5

Query: Could you tell me which fold change (FC) is on file for O=Cc1ccc(O)cc1 [4-HYDROXYBENZALDEHYDE] ?
Response: 1.25

----------
assay_method_text: Protective activity against Naja kaouthia venom-induced mortality in Swiss albino mouse at 100 mmol, iv administered immediately after venom injection measured after 24 hrs relative to untreated control
Format: functional
experimental_readout: fold change (FC)
Lab note: write the figure by itself, no unit.

The examples below pair each entry with its known result.
compound: COc1cc(C=O)ccc1O [VANILLIN]
fold change (FC): 2
//
compound: COc1ccc(C=O)c(O)c1
fold change (FC): 2
//
compound: CCCCOc1ccc(C=O)c(O)c1
fold change (FC): 2
//
compound: COc1ccc(C=O)c(OC)c1
fold change (FC): 1.6
//
compound: C=CCOc1ccc(C=O)c(O)c1
fold change (FC): 2
//
compound: COc1ccc(CO)c(O)c1
fold change (FC): 2

Query: Value lookup for fold change (FC); key = O=Cc1ccc(O)cc1O
Response: 1.6

Query: Which fold change (FC) is reported for this compound? COc1cccc(C=O)c1O
Response: 2

Query: // lookup fold change (FC) for COc1cccc(CO)c1O
Response: 2

Query: Sample OCc1cccc(O)c1O — what was its fold change (FC)?
Response: 2

Query: What value of fold change (FC) has been recorded for this entry: CCOc1cc(C=O)ccc1O [ETHYL VANILLIN]
Response: 2

Query: What value of fold change (FC) has been reported for the following compound? COc1ccc(O)c(C=O)c1
Response: 1.6

----------
assay_method_text: Protective activity against Naja kaouthia venom-induced mortality in Swiss albino mouse at 100 mmol, iv preincubated with venom for 1 hr followed by administration to mouse measured after 24 hrs relative to untreated control
Assay type: functional
experimental_readout: fold change (FC)
Write the number on its own, no unit after it.

Solved entries:
compound: C=CCOc1ccc(C=O)c(O)c1
result_value: 3.2
--
compound: COc1ccc(C=O)c(O)c1
result_value: 3.2

// below: fold change (FC) requested for another compound
Query: Sample O=Cc1ccc(O)cc1 [4-HYDROXYBENZALDEHYDE] — what was its fold change (FC)?
Response: 1
